Data origin: BindingDB's records for doi:10.1016/j.bmcl.2009.03.150

Field: pIC50. Provide a value for each of the compounds that follow.
Entry type: numeric. Quantity: pIC50, the -log10 of concentration in molar units.

[ask] Any idea what pIC50 came out for CCN1CCN2CCS(=O)(=O)N(C)C3C=C(C(=O)N[C@@H](Cc4ccccc4)[C@H](O)CNCc4cccc(C(F)(F)F)c4)C=C1C32 (some centres undefined) [7,6,6 tricyclic sulfonamide, 10] on Beta-secretase 1 (Homo sapiens)?
[reply] 7.59

[ask] Query pIC50 on Beta-secretase 1 (Homo sapiens) for CCc1cn2c3c(cc(C(=O)N[C@@H](Cc4ccccc4)[C@H](O)CNCc4cccc(OC)c4)cc13)N(C)S(=O)(=O)CCC2 [8,6,5 tricyclic sulfonamide, 32]
Sequence (P56817 whole entry): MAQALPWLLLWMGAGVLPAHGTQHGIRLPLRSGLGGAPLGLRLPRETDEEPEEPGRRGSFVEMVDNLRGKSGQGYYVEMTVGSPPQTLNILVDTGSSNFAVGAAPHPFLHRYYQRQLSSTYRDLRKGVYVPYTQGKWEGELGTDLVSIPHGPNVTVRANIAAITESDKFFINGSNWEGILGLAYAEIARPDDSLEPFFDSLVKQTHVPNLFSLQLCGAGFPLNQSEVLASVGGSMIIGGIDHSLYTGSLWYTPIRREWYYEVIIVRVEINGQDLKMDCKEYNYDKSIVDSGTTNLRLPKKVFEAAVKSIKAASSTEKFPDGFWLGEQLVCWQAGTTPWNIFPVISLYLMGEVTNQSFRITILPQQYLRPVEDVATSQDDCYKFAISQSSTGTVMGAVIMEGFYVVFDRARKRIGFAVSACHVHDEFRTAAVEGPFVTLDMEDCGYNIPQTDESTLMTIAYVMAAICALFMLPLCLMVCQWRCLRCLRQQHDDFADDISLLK
[reply] 7.55

[ask] API: value(readout=pIC50, system=Beta-secretase 1 (Homo sapiens)) for record CCN1CCN2CCS(=O)(=O)N(C)C3C=C(C(=O)N[C@@H](Cc4ccccc4)[C@H](O)CNC4CC4)C=C1C32 (some centres undefined) [7,6,6 tricyclic sulfonamide, 19]
[reply] 6.26

[ask] Notebook entry, Beta-secretase 1 (Homo sapiens) assay: pIC50 of CCc1cn2c3c(cc(C(=O)N[C@@H](Cc4ccccc4)[C@H](O)CNC4CC4)cc13)N(C)S(=O)(=O)CCC2 [8,6,5 tricyclic sulfonamide, 33] = ?
[reply] 6.31

* * *

Provide the recorded pIC50 for the entries that follow.
In textbook form, pIC50 equals minus log to base ten of the concentration in mol/L.

[ask] Query for Cathepsin D (Homo sapiens): what pIC50 does the record show for CCN1CCN2CCS(=O)(=O)N(C)C3C=C(C(=O)N[C@@H](Cc4ccccc4)[C@H](O)CNC4CC4)C=C1C32 (some centres undefined) [7,6,6 tricyclic sulfonamide, 19] ?
[reply] 4.58

[ask] API: value(readout=pIC50, system=Cathepsin D (Homo sapiens)) for record CCN1CCN2CCS(=O)(=O)N(C)C3C=C(C(=O)N[C@@H](Cc4ccccc4)[C@H](O)CNCc4cccc(C(F)(F)F)c4)C=C1C32 (some centres undefined) [7,6,6 tricyclic sulfonamide, 10]
[reply] 5.65

[ask] Short answer please: pIC50, Cathepsin D (Homo sapiens), entry CCc1cn2c3c(cc(C(=O)N[C@@H](Cc4ccccc4)[C@H](O)CNC4CC4)cc13)N(C)S(=O)(=O)CCC2 [8,6,5 tricyclic sulfonamide, 33]
[reply] 5.54

[ask] Which pIC50 is reported with Cathepsin D (Homo sapiens) for this entry: CCc1cn2c3c(cc(C(=O)N[C@@H](Cc4ccccc4)[C@H](O)CNCc4cccc(OC)c4)cc13)N(C)S(=O)(=O)CCC2 [8,6,5 tricyclic sulfonamide, 32] ?
[reply] 5.80

* * *

Exercise: for every item that follows, state its recorded IC50.

[ask] Find the measured IC50: item CCc1cn2c3c(cc(C(=O)N[C@@H](Cc4ccccc4)[C@H](O)CNC4CC4)cc13)N(C)S(=O)(=O)CCC2 [8,6,5 tricyclic sulfonamide, 33] , target or system UniProt Q9Y5Z0.
Sequence (Q9Y5Z0 whole entry): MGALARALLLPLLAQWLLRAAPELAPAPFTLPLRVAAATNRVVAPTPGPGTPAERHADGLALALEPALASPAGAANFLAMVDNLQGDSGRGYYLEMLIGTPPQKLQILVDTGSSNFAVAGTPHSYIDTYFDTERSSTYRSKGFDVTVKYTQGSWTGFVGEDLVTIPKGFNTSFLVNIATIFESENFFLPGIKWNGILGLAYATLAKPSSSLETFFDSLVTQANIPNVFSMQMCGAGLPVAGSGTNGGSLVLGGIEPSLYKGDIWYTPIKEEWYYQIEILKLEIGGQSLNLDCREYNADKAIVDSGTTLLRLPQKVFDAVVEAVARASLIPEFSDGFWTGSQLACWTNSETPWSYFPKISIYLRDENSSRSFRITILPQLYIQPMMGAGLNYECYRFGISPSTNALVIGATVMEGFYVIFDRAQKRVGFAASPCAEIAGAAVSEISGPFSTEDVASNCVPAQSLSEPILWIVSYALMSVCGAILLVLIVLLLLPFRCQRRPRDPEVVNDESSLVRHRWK
[reply] 5.46 µM

[ask] Under UniProt Q9Y5Z0: IC50 value of CCc1cn2c3c(cc(C(=O)N[C@@H](Cc4ccccc4)[C@H](O)CNCc4cccc(OC)c4)cc13)N(C)S(=O)(=O)CCC2 [8,6,5 tricyclic sulfonamide, 32] ?
[reply] 1.86 µM

[ask] Param readout = IC50; param system = UniProt Q9Y5Z0; param query = CCN1CCN2CCS(=O)(=O)N(C)C3C=C(C(=O)N[C@@H](Cc4ccccc4)[C@H](O)CNC4CC4)C=C1C32 (some centres undefined) [7,6,6 tricyclic sulfonamide, 19] ; response: value
[reply] 16.2 µM

[ask] Tell me reported IC50 for CCN1CCN2CCS(=O)(=O)N(C)C3C=C(C(=O)N[C@@H](Cc4ccccc4)[C@H](O)CNCc4cccc(C(F)(F)F)c4)C=C1C32 (some centres undefined) [7,6,6 tricyclic sulfonamide, 10] , tested with UniProt Q9Y5Z0.
[reply] 3.8 µM
